Where do the numbers come from? From patent US20260355212A1.

system: HCoV-HKU1 Mpro (Human coronavirus HKU1)
Sequence (P0C6X2 3335-3637 limits assumed): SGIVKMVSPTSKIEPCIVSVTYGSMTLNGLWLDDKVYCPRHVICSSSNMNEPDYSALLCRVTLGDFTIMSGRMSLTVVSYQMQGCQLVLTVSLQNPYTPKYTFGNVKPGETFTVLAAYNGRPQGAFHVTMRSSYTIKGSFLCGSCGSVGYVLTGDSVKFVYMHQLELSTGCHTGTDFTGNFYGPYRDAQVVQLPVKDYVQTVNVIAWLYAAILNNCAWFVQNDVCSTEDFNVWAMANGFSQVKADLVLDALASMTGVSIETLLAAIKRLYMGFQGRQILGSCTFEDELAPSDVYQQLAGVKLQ
experiment: HCoV-HKU1 Mpro enzymatic inhibition assay (fluorescence)
Format: biochemical
Please provide measured pIC50 for the entries that follow.
Answers are plain numbers, as −log10 of the molar value.

Some compounds with recorded pIC50:
Cc1ccc2cc(C(=O)N3C[C@H]4[C@@H]([C@H]3C(=O)N[C@H](C=O)C[C@@H]3CCNC3=O)C4(C)C)[nH]c2c1	7.68
CC1(C)C[C@@H](C(=O)N[C@H](C=O)C[C@@H]2CCNC2=O)N(C(=O)c2cc3cccc(F)c3[nH]2)C1	7.25
COc1ccc(Cl)c2[nH]c(C(=O)N3C[C@H]4[C@@H]([C@H]3C(=O)N[C@H](C=O)C[C@@H]3CCNC3=O)C4(C)C)cc12	7.70
CC1(C)[C@@H]2[C@@H](C(=O)N[C@H](C=O)C[C@@H]3CCNC3=O)N(C(=O)C3(c4ccccc4)CCCC3)C[C@@H]21	7.62
CC1(C)C[C@@H](C(=O)N[C@H](C=O)C[C@@H]2CCNC2=O)N(C(=O)c2cc3cccc(Cl)c3[nH]2)C1	7.69

Hi there! I need pIC50 for each item below, if you can.
1. CC(C)c1ccc(F)c2[nH]c(C(=O)N3C[C@H]4[C@@H]([C@H]3C(=O)N[C@H](C=O)C[C@@H]3CCNC3=O)C4(C)C)cc12
2. CC1(C)[C@@H]2[C@@H](C(=O)N[C@H](C=O)C[C@@H]3CCCNC3=O)N(C(=O)CC3CCCCC3)C[C@@H]21
3. CC1(C)C[C@@H](C(=O)N[C@H](C=O)C[C@@H]2CCNC2=O)N(C(=O)c2cc3c(F)cccc3[nH]2)C1
4. CC1(C)[C@@H]2[C@@H](C(=O)N[C@H](C=O)C[C@@H]3CCNC3=O)N(C(=O)c3[nH]c4ccccc4c3-c3ccccc3)C[C@@H]21
5. CC1(C)C[C@@H](C(=O)N[C@H](C=O)C[C@@H]2CCNC2=O)N(C(=O)c2cc3cccc(C#N)c3[nH]2)C1
6. C[C@H](C(=O)N1C[C@H]2[C@@H]([C@H]1C(=O)N[C@H](C=O)C[C@@H]1CCNC1=O)C2(C)C)C1CCCCC1

[7.80, 7.57, 7.89, 6.44, 7.72, 7.40]

Quick request: pIC50 for each listed item, please.
1. CC1(C)[C@@H]2[C@@H](C(=O)N[C@H](C=O)C[C@@H]3CCNC3=O)N(C(=O)CC3CCC(F)(F)CC3)C[C@@H]21
2. CC1(C)[C@@H]2[C@@H](C(=O)N[C@H](C=O)C[C@@H]3CCNC3=O)N(C(=O)c3cc4cccc(C#N)c4[nH]3)C[C@@H]21
3. CC1(C)[C@@H]2[C@@H](C(=O)N[C@H](C=O)C[C@@H]3CCNC3=O)N(C(=O)c3cc4c(F)ccc(F)c4[nH]3)C[C@@H]21

7.90
7.66
7.42

* * *

Please go through the items and note down their pIC50.
system: UniProt P0C6X2
experiment: HCoV-HKU1 Mpro enzymatic inhibition assay (fluorescence)
Format: biochemical
One number for each entry, as −log10 of the molar value.

The cases that follow already have their pIC50 on record.
O=C1NCC[C@H]1C[C@H](NC(=O)[C@@H]1CC2(CC2)CN1C(=O)c1cc2ccccc2[nH]1)C(=O)c1nc2ccccc2s1 [Compound 127]	6.43
O=C[C@H](C[C@@H]1CCNC1=O)NC(=O)[C@@H]1C[C@@H](Cc2cccc(Cl)c2)CN1C(=O)c1cc2ccccc2[nH]1 [Compound 137]	6.58
CC1(C)[C@@H]2[C@@H](C(=O)N[C@H](C=O)C[C@@H]3CCNC3=O)N(C(=O)CC3CCCCC3(F)F)C[C@@H]21 (stereo partly drawn) [Compound 64]	7.33
CC1(C)[C@@H]2[C@@H](C(=O)N[C@H](C=O)C[C@@H]3CCNC3=O)N(C(=O)C3(c4cccc(Cl)c4)CC3)C[C@@H]21 [Compound 8]	8.11
CC1(C)[C@@H]2[C@@H](C(=O)N[C@H](C=O)C[C@@H]3CCNC3=O)N(C(=O)c3cc4ccc(F)cc4[nH]3)C[C@@H]21 [Compound 19]	7.74

Look at each molecule and report its pIC50.
1. CC(C)(C)NC(=O)N[C@H](C(=O)N1C[C@H]2[C@@H]([C@H]1C(=O)N[C@@H](C[C@@H]1CCNC1=O)C(=O)C(N)=O)C2(C)C)C(C)(C)C [Compound 50]
2. O=C[C@H](C[C@@H]1CCNC1=O)NC(=O)[C@@H]1[C@H]2CCC[C@H]2CN1C(=O)COc1ccc(Cl)cc1Cl [Compound 63]
3. CC1(C)[C@@H]2[C@@H](C(=O)N[C@H](C=O)C[C@@H]3CCNC3=O)N(C(=O)CC3CCCC(F)(F)C3)C[C@@H]21 (stereo partly drawn) [Compound 22]
4. O=C[C@H](C[C@@H]1CCNC1=O)NC(=O)[C@@H]1CC2(CCC2)CN1C(=O)C1(c2ccccc2)CC1 [Compound 84]

1: 7.47; 2: 7.40; 3: 7.98; 4: 7.76

Hi there! I need pIC50 for each item below, if you can.
1. O=C[C@H](C[C@@H]1CCNC1=O)NC(=O)[C@@H]1C[C@@H](Cc2ccccc2Cl)CN1C(=O)c1cc2ccccc2[nH]1 [Compound 109]
2. CC1(C)[C@@H]2[C@@H](C(=O)N[C@H](C=O)C[C@@H]3CCNC3=O)N(C(=O)Cc3ccc4c(c3)CCCC4)C[C@@H]21 [Compound 40]
3. CC1(C)[C@@H]2[C@@H](C(=O)N[C@H](C=O)C[C@@H]3CCNC3=O)N(C(=O)c3cc4c(F)cccc4[nH]3)C[C@@H]21 [Compound 15]

7.31
7.69
7.62

* * *

system: HCoV-NL63 Mpro (Human coronavirus NL63)
Sequence (P0C6X5 2940-3242 limits assumed): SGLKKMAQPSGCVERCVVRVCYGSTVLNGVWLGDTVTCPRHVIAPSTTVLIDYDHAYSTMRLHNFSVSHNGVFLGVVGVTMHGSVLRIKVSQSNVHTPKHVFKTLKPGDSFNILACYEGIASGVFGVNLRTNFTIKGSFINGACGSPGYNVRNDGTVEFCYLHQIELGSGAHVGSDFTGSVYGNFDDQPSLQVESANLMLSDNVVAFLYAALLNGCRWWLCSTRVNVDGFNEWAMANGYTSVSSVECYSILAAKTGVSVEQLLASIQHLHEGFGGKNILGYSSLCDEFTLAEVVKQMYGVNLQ
experiment: HCoV-NL63 Mpro enzymatic inhibition assay (fluorescence)
Format: biochemical
condition_label: read-out: Mpro_NL63 mean IC50; mean; 50 nM protein, 12.5 μM substrate; 30 min pre-incubation, 60 min at 30° C.
measured_attribute: pIC50
Give bare numbers, as −log10 of the molar value.

Data request, read-out pIC50, for CC1(C)[C@@H]2[C@@H](C(=O)N[C@H](C=O)C[C@@H]3CCNC3=O)N(C(=O)CC3CCCCC3)C[C@@H]21
7.37

* * *

system: HCoV-NL63 Mpro (Human coronavirus NL63)
experiment: HCoV-NL63 Mpro enzymatic inhibition assay (fluorescence)
Assay type: biochemical
measured_attribute: pIC50
Numbers only, as −log10 of the molar value.

CCOc1ccc2[nH]c(C(=O)N3C[C@H]4[C@@H]([C@H]3C(=O)N[C@H](C=O)C[C@@H]3CCNC3=O)C4(C)C)cc2c1	6.87
CC1(C)[C@@H]2[C@@H](C(=O)N[C@H](C=O)C[C@@H]3CCNC3=O)N(C(=O)c3cc4cccc(F)c4[nH]3)C[C@@H]21	7.42
O=C[C@H](C[C@@H]1CCNC1=O)NC(=O)[C@@H]1C[C@@H](C2CCCCC2)CN1C(=O)c1cc2c(F)cccc2[nH]1	7.00
CC(C)c1ccc(Cl)c2[nH]c(C(=O)N3C[C@H]4[C@@H]([C@H]3C(=O)N[C@H](C=O)C[C@@H]3CCNC3=O)C4(C)C)cc12	7.16
CO[C@@H]1C[C@@H](C(=O)N[C@H](C=O)C[C@@H]2CCNC2=O)N(C(=O)c2cc3ccccc3[nH]2)C1	6.70
O=C[C@H](C[C@@H]1CCNC1=O)NC(=O)[C@@H]1CC2(CC2)CN1C(=O)c1cc2c(F)cccc2[nH]1	7.75
C=C1C[C@@H](C(=O)N[C@H](C=O)C[C@@H]2CCNC2=O)N(C(=O)c2cc3ccccc3[nH]2)C1	7.42
O=C[C@H](C[C@@H]1CCNC1=O)NC(=O)[C@@H]1C[C@@H](Cc2ccccc2Cl)CN1C(=O)c1cc2ccccc2[nH]1	5.63

# per-item lookup of pIC50; items listed below
1. C[C@H](C(=O)N1C[C@H]2[C@@H]([C@H]1C(=O)N[C@H](C=O)C[C@@H]1CCNC1=O)C2(C)C)C1CCCCC1
2. O=C[C@H](C[C@@H]1CCNC1=O)NC(=O)[C@@H]1[C@H]2CCC[C@H]2CN1C(=O)COc1ccc(Cl)cc1Cl
3. CC1(C)[C@@H]2[C@@H](C(=O)N[C@H](C=O)C[C@@H]3CCNC3=O)N(C(=O)C3CCCC3)C[C@@H]21
4. O=C[C@H](C[C@@H]1CCNC1=O)NC(=O)[C@@H]1C[C@@H](C2CCCCC2)CN1C(=O)c1cc2ccccc2[nH]1
5. O=C[C@H](C[C@@H]1CCNC1=O)NC(=O)[C@@H]1[C@H]2C[C@H]2CN1C(=O)c1cc2ccccc2[nH]1
6. O=C[C@H](C[C@@H]1CCNC1=O)NC(=O)[C@@H]1C[C@@H](C2CCCCC2)CN1C(=O)c1cc2cccc(F)c2[nH]1
7. CC1(C)[C@@H]2[C@@H](C(=O)N[C@H](C=O)C[C@@H]3CCNC3=O)N(C(=O)C3(c4ccccc4)CCCC3)C[C@@H]21

[6.79, 6.98, 5.60, 6.70, 6.89, 6.38, 6.74]

Consider the following items and state reported pIC50 for each.
1. N#Cc1ccc2cc(C(=O)N3CC4(CC4)C[C@H]3C(=O)N[C@H](C=O)C[C@@H]3CCNC3=O)[nH]c2c1
2. CC1(C)[C@@H]2[C@@H](C(=O)N[C@H](C=O)C[C@@H]3CCNC3=O)N(C(=O)c3cc4ccc(Cl)c(F)c4[nH]3)C[C@@H]21

7.52
7.24

Provide the reported pIC50 of each entry below, same order.
1. O=C[C@H](C[C@@H]1CCNC1=O)NC(=O)[C@@H]1[C@H]2CCC[C@H]2CN1C(=O)c1cc2ccccc2[nH]1
2. Cc1cccc([C@@H](C)C(=O)N2C[C@H]3[C@@H]([C@H]2C(=O)N[C@H](C=O)C[C@@H]2CCNC2=O)C3(C)C)c1
3. CO[C@H]1C[C@@H](C(=O)N[C@H](C=O)C[C@@H]2CCNC2=O)N(C(=O)c2cc3ccccc3[nH]2)C1

[7.42, 7.47, 6.70]

Items follow; give pIC50 for each.
1. CC1(C)[C@@H]2[C@@H](C(=O)N[C@H](C=O)C[C@@H]3CCNC3=O)N(C(=O)CN3CCCCCC3)C[C@@H]21
2. CC1(C)[C@@H]2[C@@H](C(=O)N[C@H](C=O)C[C@@H]3CCNC3=O)N(C(=O)c3cc4ncccc4[nH]3)C[C@@H]21
3. CC1(C)[C@@H]2[C@@H](C(=O)N[C@H](C=O)C[C@@H]3CCNC3=O)N(C(=O)Cc3ccc4c(c3)CCCC4)C[C@@H]21
4. CC1(C)[C@@H]2[C@@H](C(=O)N[C@H](C=O)C[C@@H]3CCNC3=O)N(C(=O)c3cc4c(C#N)cccc4[nH]3)C[C@@H]21
5. CC1(C)[C@@H]2[C@@H](C(=O)N[C@H](C=O)C[C@@H]3CCNC3=O)N(C(=O)c3cc4c(Cl)cccc4[nH]3)C[C@@H]21

[7.15, 7.23, 7.05, 7.19, 7.32]
